experiment: Safety index, ratio of test compound IC50 to doxorubicin IC50 for human lymphocytes; type: ADME, cell-based, Lymphocyte; settings: read-out: Ratio IC50
quantity: selectivity ratio
Lab note: record the figure alone, no unit after it.

Incoming: Could you tell me which selectivity ratio is on file for COC(=O)/C(=C\c1ccc(OC(=O)c2ccc(OC)c(OC)c2OC)cc1)Sc1ccnc2cc(Cl)ccc12 ?
Outgoing: 5.1

---

Attribute: Activity
system: Plasmodium berghei; test: Antimalarial activity against chloroquine-susceptible Plasmodium berghei ANKA infected in Balb-C mouse assessed as parasitemia at 10 mg/kg, ip administered once daily for 4 days measured post last dose by Giemsa staining based method (reference value: 65.8 +/- 4.38%); type: functional
Write the number in % without appending the unit.

Incoming: Fill in: Activity of CCN(CC)CCCC(C)Nc1ccnc2cc(Cl)ccc12 (configuration not stated) [CHLOROQUINE] is ___
Outgoing: 0.8

Incoming: Look up Activity: COC(=O)/C(=C\c1ccc(OC(=O)c2ccccc2OC)cc1)Sc1ccnc2cc(Cl)ccc12
Outgoing: 1.2

Incoming: Give its Activity value. Item: COC(=O)/C(=C\c1ccc(OC(=O)c2cccc(OC)c2)cc1)Sc1ccnc2cc(Cl)ccc12
Outgoing: 1.5

New cases:
Incoming: Reported Activity for COC(=O)/C(=C\c1ccc(O)cc1)Sc1ccnc2cc(Cl)ccc12 : what is it?
Outgoing: 1.4

Incoming: Suppose we examine the molecule COC(=O)/C(=C\c1ccc(OC(=O)c2ccc(OC)c(OC)c2OC)cc1)Sc1ccnc2cc(Cl)ccc12 ; what Activity value has been reported?
Outgoing: 1

Incoming: I would be grateful if you could share the reported Activity for COC(=O)/C(=C\c1ccc(OC(=O)c2c(OC)cccc2OC)cc1)Sc1ccnc2cc(Cl)ccc12 .
Outgoing: 2.6

Incoming: Please give the measured Activity for this molecule: COC(=O)/C(=C\c1ccc(OC(=O)c2cc(OC)cc(OC)c2)cc1)Sc1ccnc2cc(Cl)ccc12
Outgoing: 1.4
